Target: T1, rat GLP-1 receptor (rGLP-1r) (Rattus norvegicus, UniProt P32301)
T1 construct: expressed in transfected cells; host or cells: HEK293s or CHO cells
T1 sequence (P32301 22-463): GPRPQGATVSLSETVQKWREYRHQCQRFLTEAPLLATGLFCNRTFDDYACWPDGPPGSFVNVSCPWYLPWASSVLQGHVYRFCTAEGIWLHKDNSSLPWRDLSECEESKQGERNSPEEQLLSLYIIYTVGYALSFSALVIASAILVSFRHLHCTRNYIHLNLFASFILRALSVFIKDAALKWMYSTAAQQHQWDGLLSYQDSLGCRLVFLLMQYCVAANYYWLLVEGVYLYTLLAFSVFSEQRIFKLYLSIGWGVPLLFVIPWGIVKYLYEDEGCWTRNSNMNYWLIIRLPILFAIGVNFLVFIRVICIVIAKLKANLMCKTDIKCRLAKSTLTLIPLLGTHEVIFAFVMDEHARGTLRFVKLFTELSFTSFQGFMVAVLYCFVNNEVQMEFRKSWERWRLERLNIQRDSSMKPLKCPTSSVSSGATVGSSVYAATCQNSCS
Experiment: BSA-cAMP assay, cells expressing rat GLP-1 receptor
Type: cell-based
Settings: Batch 1; BSA-cAMP assay; read-out: rGLP1r cAMP activity EC50
Experimental: One basic cAMP assays was performed, differing in the medium used for the assay, the “BSA-cAMP assay”: BSA-based assay medium: 0.1% bovine serum albumin (BSA) in […] cAMP levels were measured using a commercially available cAMP dynamic 2 HTRF kit (Cisbio, Cat #62AM4PEJ), following the two step protocol as per manufacturer's recommendations. […]
pEC50: −log10 of the molar value.
Form field: pEC50 (one value per entry).
recorded metric: pEC50

molecule | numeric readout
IP365 (protein) YSEGMHTSDFSKLLERQAIDEFIAWLLKGGAAAGGSGSTASSGSGSATGGGGAATHTCPPC | 8.82
IP394 (protein) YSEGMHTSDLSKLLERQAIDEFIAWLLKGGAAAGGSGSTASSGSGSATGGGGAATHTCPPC | 9.64
IP309 (protein) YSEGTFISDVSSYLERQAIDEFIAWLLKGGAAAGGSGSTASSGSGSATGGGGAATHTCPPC | 8.77
IP321 (protein) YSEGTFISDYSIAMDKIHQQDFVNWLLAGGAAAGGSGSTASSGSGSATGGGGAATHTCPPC | 7.66
IP307 (protein) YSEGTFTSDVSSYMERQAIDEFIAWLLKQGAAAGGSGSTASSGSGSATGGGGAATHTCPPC | 9.68
